Data origin, for the record: patent US10620222B2

- System: receptors coupled to Gi proteins expressed on osteoblasts
- protocol-details: Cellular Dielectric Spectroscopy (CDS, CELLKEY) response to Gi-coupled receptor ligands in osteoblasts from control and AIS subjects
- Type: cell-based, human
- assay-conditions: osteoblasts; AIS Group 2 value of min diff.; 300 μM ligand; from FIGS. 11A-11F
Label Y when Absolute dZiec, Group 2, min diff. (group value) >= 80; otherwise N.

| cpd-smiles | discrete-label |
| --- | --- |
| O=C(NC1CCCCC1)c1cn(CCN2CCOCC2)c2cc(Cl)ccc2c1=O | Y |
| O=C(O)/C=C\C(=O)O.c1ccc(N2CCN(CCCOc3ccc4c(c3)OCO4)CC2)cc1 | Y |
| Brc1c(NC2=NCCN2)ccc2nccnc12 | N |
| COc1ccc2[nH]cc(CCNC(C)=O)c2c1 | N |
| COc1ccc2[nH]c(I)c(CCNC(C)=O)c2c1 | Y |

---

- System: receptors coupled to Gi proteins expressed on osteoblasts
- protocol-details: Cellular Dielectric Spectroscopy (CDS, CELLKEY) response to Gi-coupled receptor ligands in osteoblasts from control and AIS subjects
- Format: cell-based, human
- assay-conditions: osteoblasts; AIS Group 2 value of max diff.; 300 μM ligand; from FIGS. 11A-11F
reported-property: Absolute dZiec, Group 2, max diff. (group value)

| molecule | result |
| --- | --- |
| CNC(=O)[C@H]1O[C@@H](n2cnc3c(NCc4cccc(I)c4)ncnc32)[C@H](O)[C@@H]1O [IB-meca] | 73 |
| COc1ccc2[nH]c(I)c(CCNC(C)=O)c2c1 [Iodomelatonin, 2-lodomelatonin] | 57 |
| O=C(O)/C=C\C(=O)O.c1ccc(N2CCN(CCCOc3ccc4c(c3)OCO4)CC2)cc1 [BP554] | 67 |
| COc1ccc2[nH]cc(CCNC(C)=O)c2c1 [Melatonin, melatonin] | 28 |
| O=C(NC1CCCCC1)c1cn(CCN2CCOCC2)c2cc(Cl)ccc2c1=O [CB65] | 60 |
| Brc1c(NC2=NCCN2)ccc2nccnc12 [UK14304] | 45 |
